Where do the numbers come from? From PubChem BioAssay (NCI).

Test system: K-562 leukemia
Experiment: NCI tumour cell line growth inhibition, 48 h
value_type: TGI

-- ask For the compound CC(=O)N1c2ccccc2C2=NN=C(N(C)C)SC21 (stereo unspecified) , what TGI is on record?
-- reply 18.8 µM

-- ask For the compound COC(=O)[C@H](C)[C@H]1CC[C@@](C)([C@H]2CC3C(C)(C)[C@H]4CCC(C)=C[C@H]4C[C@@]3(C)O2)OO1 (stereo partly specified) , what TGI is on record?
-- reply 24.2 µM

-- ask For the compound O=[N+]([O-])/C(C(Cl)=C(Cl)Cl)=C(\Nc1cccc2cccnc12)Sc1ccccc1 , what TGI is on record?
-- reply 84.5 µM

-- ask For the compound C=C(CN1CCc2ccccc2C1)c1ccc(/C=C/C(=O)Nc2ccccc2N)cc1 , what TGI is on record?
-- reply > 100 µM

-- ask For the compound CCCCCCCCCCCCOCCCCCCCCC/C=C/c1ccc2c(c1)OCCOCCOCCOCCO2 , what TGI is on record?
-- reply > 100 µM

-- ask For the compound O=C1CCCSCCCC(=O)CCCSCCC1 , what TGI is on record?
-- reply > 100 µM

-- ask For the compound Cc1ccc(C)c(NC(=O)CC2C(=O)Nc3ccccc3S2(=O)=O)c1 (stereo unspecified) , what TGI is on record?
-- reply > 100 µM

-- ask For the compound Cc1ccc([N+](=O)[O-])cc1S(=O)(=O)Nc1ccc(C2=NOC(c3ccccc3)C2)cc1 (stereo unspecified) , what TGI is on record?
-- reply 5.14 µM

-- ask For the compound COC1/C=C/C(C)C(C(C)C(OC)C(C)CCC(=O)C(C)C(CC(=O)O)OC)OC(=O)/C=C/C=C(\C)CC(OC)C(OC)C2=CC(=O)O[C@@H](C(C)C(OC)CC(OC)/C=C/C(C)C(O)C1)[C@H]2O (stereo partly specified) , what TGI is on record?
-- reply > 1.07 µM

-- ask For the compound CC1(C)C2CC1C(/C=N\OCC(=O)O)=CC2=O (stereo unspecified) , what TGI is on record?
-- reply > 100 µM

-- ask For the compound CS(=O)(=O)c1ccc(Oc2nccc(-c3c(-c4ccc(F)cc4)ncn3C3CCNCC3)n2)cc1 , what TGI is on record?
-- reply > 14.9 µM
